- Target Or Test System: E3 ubiquitin-protein ligase XIAP (Homo sapiens)
- Sequence (P98170 whole entry): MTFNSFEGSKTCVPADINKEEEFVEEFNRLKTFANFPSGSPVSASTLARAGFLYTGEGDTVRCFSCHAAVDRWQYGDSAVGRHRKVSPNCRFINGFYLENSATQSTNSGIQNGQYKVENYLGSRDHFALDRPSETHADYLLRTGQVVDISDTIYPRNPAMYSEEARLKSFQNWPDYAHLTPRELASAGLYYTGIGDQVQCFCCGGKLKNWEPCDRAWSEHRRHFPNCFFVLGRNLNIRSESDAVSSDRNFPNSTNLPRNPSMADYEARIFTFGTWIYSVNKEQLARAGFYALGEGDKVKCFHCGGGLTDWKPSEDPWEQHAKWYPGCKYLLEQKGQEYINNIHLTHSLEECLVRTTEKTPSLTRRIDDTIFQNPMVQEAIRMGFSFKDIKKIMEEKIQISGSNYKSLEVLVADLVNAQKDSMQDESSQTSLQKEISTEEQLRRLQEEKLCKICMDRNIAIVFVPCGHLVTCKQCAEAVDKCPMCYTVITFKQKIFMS
- Experimental Protocol: Inhibition of recombinant human His-tagged XIAP (Asn252 to Thr356 residues) expressed in Escherichia coli by TR-FRET assay
pIC50: −log10 of the molar value.
Measurement Label: pIC50

-- ask Fill in pIC50 for record CN[C@@H](C)C(=O)N(C)[C@H](C(=O)N1CCC[C@H]1c1nc(C(=O)c2cccc(OCCOCCOCCNC(=O)C3CCN(c4ncc(C(=O)Nc5ccc(OC(F)(F)Cl)cc5)cc4-c4ccn[nH]4)C3)c2)cs1)C1CCCCC1 (stereo partly specified)
-- reply < 6.00

----------
- Target Or Test System: Baculoviral IAP repeat-containing protein 2 (Homo sapiens, UniProt Q13490)
- Sequence (Q13490 whole entry): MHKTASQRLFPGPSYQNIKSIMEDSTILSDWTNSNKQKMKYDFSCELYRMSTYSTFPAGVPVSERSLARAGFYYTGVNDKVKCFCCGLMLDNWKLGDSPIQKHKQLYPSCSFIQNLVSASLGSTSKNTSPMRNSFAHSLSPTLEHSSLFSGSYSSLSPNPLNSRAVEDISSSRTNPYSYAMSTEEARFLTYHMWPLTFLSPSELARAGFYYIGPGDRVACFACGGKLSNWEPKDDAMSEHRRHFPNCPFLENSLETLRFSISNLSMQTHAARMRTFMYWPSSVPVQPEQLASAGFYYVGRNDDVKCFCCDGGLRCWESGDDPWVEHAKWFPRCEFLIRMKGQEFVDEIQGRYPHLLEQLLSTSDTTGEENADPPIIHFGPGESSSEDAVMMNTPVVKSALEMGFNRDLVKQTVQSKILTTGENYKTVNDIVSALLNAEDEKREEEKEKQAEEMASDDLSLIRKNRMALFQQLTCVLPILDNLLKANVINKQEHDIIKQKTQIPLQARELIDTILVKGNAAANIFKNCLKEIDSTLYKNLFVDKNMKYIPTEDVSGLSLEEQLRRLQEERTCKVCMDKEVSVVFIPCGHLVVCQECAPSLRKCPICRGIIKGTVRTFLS
- Experimental Protocol: Inhibition of recombinant human His-tagged cIAP1 (Leu250 to Gly350 residues) expressed in Escherichia coli by TR-FRET assay
Measurement Label: pIC50
Give bare numbers, as −log10 of the molar value.

Below are worked cases with known answers.
-- ask Write down measured pIC50 (Baculoviral IAP repeat-containing protein 2 (Homo sapiens, UniProt Q13490)) for this compound. CN[C@@H](C)C(=O)N[C@H](C(=O)N1CCC[C@H]1c1nc(C(=O)c2cccc(OC)c2)cs1)C1CCCCC1
-- reply 8.32

-- ask Output reported pIC50 of the compound CN[C@@H](C)C(=O)N[C@H](C(=O)N1CCC[C@H]1c1nc(C(=O)c2cccc(OCCOCCOCCNC(=O)c3cccc(-c4cc(Nc5ccc(OC(F)(F)F)cc5)ncn4)c3)c2)cs1)C1CCCCC1 on Baculoviral IAP repeat-containing protein 2 (Homo sapiens, UniProt Q13490).
-- reply 6.66

Shift focus to the following entry.
-- ask State the measured pIC50 (Baculoviral IAP repeat-containing protein 2 (Homo sapiens, UniProt Q13490)) of CN[C@@H](C)C(=O)N[C@H](C(=O)N1CCC[C@H]1c1nc(C(=O)c2cccc(OCCOCCOCCNC(=O)C3CCN(c4ncc(C(=O)Nc5ccc(OC(F)(F)Cl)cc5)cc4-c4ccn[nH]4)C3)c2)cs1)C1CCCCC1 (some centres undefined)
-- reply 7.07
